We begin with a simple list: items and their reported inhibition in vivo at 1 mg/kg.
System: vasopressor response of angiotensin II
Test: AII Challenge: antagonism of angiotensin II vasopressor response
Assay type: in vivo
Conditions: Rattus norvegicus, iv, 1 h, 1 mg/kg i.v.; AII 0.05 mcg/kg IV; 60 min post dose
Description: Conscious Male Okamoto-Aoki SHR, 16-20 weeks old, weighing approximately 330 g are purchased from Charles River Labs (Wilmington, Mass.). Conscious rats are restrained in a supine position with elastic tape. The area at the base of the tail is locally anesthetized by subcutaneous infiltration with 2% procaine. […] The cannula is attached to a Statham P23 Db pressure transducer, and pulsatile blood pressure is recorded to 10-15 minutes with a Gould Brush recorder. […]
Structures can show the parent of a compound that is named as a salt.
QUANTITY: inhibition in vivo at 1 mg/kg (%)

compound="CCCCc1nc2ccc([C@@]3(c4ccccc4)C[C@@H]4CCCN4O3)cc2c(=O)n1Cc1ccc(-c2ccccc2-c2nnn[nH]2)cc1 (relative stereo) [Example 70]" quantity="inhibition in vivo at 1 mg/kg" units_symbol=% endpoint_value=72
compound="CCCCc1nc2ccc([C@]3(CC)C[C@@H]4CCCN4O3)cc2c(=O)n1Cc1ccc(-c2ccccc2-c2nnn[nH]2)cc1 (relative stereo) [Example 72]" quantity="inhibition in vivo at 1 mg/kg" units_symbol=% endpoint_value=70
compound="CCCCc1nc2ccc([C@@]3(C)C[C@@H]4CCC(C)(C)N4O3)cc2c(=O)n1Cc1ccc(-c2ccccc2-c2nnn[nH]2)cc1 (relative stereo) [Example 66]" quantity="inhibition in vivo at 1 mg/kg" units_symbol=% endpoint_value=100
compound="CCCCc1nc2ccc(C3(CO)CC4CCCN4O3)cc2c(=O)n1Cc1ccc(-c2ccccc2-c2nnn[nH]2)cc1 (stereo not shown) [Example 80]" quantity="inhibition in vivo at 1 mg/kg" units_symbol=% endpoint_value=90
compound="CCCCc1nc2ccc(C3(C(=O)OC)CC4CCCN4O3)cc2c(=O)n1Cc1ccc(-c2ccccc2-c2nnn[nH]2)cc1 (mixture of isomers) [Example 78]" quantity="inhibition in vivo at 1 mg/kg" units_symbol=% endpoint_value=50
compound="CCCCc1nc2ccc([C@@]3(C)C[C@@H]4CCCN4O3)cc2c(=O)n1Cc1ccc(-c2ccccc2-c2nnn[nH]2)cc1 (relative stereo) [Example 73, sodium salt]" quantity="inhibition in vivo at 1 mg/kg" units_symbol=% endpoint_value=83
compound="CCCCc1nc2ccc([C@@]3(CC)C[C@@H]4CCCN4O3)cc2c(=O)n1Cc1ccc(-c2ccccc2-c2nnn[nH]2)cc1 (relative stereo) [Example 71]" quantity="inhibition in vivo at 1 mg/kg" units_symbol=% endpoint_value=88
